As shown below, each of these compounds has a reported IC50 value.
Tgt: His6-TEV-PDGFRβ (557-1016) (Homo sapiens (Human))
Sequence (P09619 557-1016): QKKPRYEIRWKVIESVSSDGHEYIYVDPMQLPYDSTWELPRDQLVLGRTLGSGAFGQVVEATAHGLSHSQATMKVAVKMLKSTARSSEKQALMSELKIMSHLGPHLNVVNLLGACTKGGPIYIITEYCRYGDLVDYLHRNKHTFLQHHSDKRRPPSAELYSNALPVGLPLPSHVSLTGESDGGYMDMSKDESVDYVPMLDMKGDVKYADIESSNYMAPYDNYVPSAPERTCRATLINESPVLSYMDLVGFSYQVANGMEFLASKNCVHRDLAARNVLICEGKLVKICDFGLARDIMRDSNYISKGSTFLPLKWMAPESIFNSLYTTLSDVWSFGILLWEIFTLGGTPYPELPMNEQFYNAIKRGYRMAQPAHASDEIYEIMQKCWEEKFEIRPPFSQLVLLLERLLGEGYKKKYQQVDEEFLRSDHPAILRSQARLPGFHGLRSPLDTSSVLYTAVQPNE
The reply should be a number in pM, with the unit left off.

Below are worked cases with known answers.
>>> result_number("Cc1ncc(NC(=O)CN2CCCC[C@H]2C)cc1NC(=O)c1cnn2cc(-c3cnn(CCO)c3)sc12 [Example 33]")
700
>>> result_number("Cc1ncc(NC(=O)CN2CCCCC23COC3)cc1NC(=O)c1cnn2cc(-c3cnn(C)c3)sc12 [Example 25]")
700
>>> result_number("Cc1cc(C(=O)NCCN2CCCC23CCC3)sc1NC(=O)c1cnn2cc(-c3cnn(C)c3)sc12 [Example 35]")
1600
>>> result_number("COc1ncccc1-c1cn2ncc(C(=O)Nc3cc(NC(=O)CN4CC(C)(OC)C4)cnc3C)c2s1 [Example 396]")
300
>>> result_number("COc1ccncc1-c1cn2ncc(C(=O)Nc3cc(NC(=O)CN4C[C@H](C)O[C@@H](C)C4)cnc3C)c2s1 (relative stereo) [Example 385]")
800

Form field: IC50 recorded for Cc1ncc(NC(=O)CN2CC(C)(C)C2)cc1NC(=O)c1cnn2cc(-c3ccn(S(C)(=O)=O)c3)sc12 [Example 275] with His6-TEV-PDGFRβ (557-1016) (Homo sapiens (Human)) (enter value) 200

Form field: IC50 recorded for Cc1ncc(NC(=O)CNCC(C)C)cc1NC(=O)c1cnn2cc(-c3cnn4c3CCC4)sc12 [Example 493] with His6-TEV-PDGFRβ (557-1016) (Homo sapiens (Human)) (enter value) 200
